meta.source: patent US12257247B2

Assay system: VAV1 (Homo sapiens, UniProt P15498+Q96SW2)
Construct: A heterozygous VAV1 C-terminal HiBiT knock-in pool was generated at Monte Rosa Therapeutics from a clonal Jurkat cell; endogenous in cells; host or cells: Jurkat clone stably expressing LgBiT, homozygous GSPT1-G575N; heterozygous VAV1-HiBiT knock-in pool
Experimental protocol: VAV1 degradation activity, VAV1-HiBiT knock-in Jurkat luminescence assay (Example A, Table 1)
Assay type: cell-based
Recorded conditions: Jurkat, VAV1-HiBiT knock-in Jurkat cells, luminescence read at 6 and 24 hours; read-out: VAV1 Dmax %, class
Quantity name: Dmax

Examples with their reported Dmax follow.
Molecule	Dmax
O=C1CCC(c2cccc(-c3ccc(N4C(=O)CC45CCOCC5)cc3)c2Cl)C(=O)N1 (centres unmarked)	< 60%
O=C1CCC(c2cccc(-c3cccc(CC4CCC(F)C(=O)N4)c3)c2Cl)C(=O)N1 (centres unmarked)	60 to 90%
O=C1CCC(c2cccc(-c3ccc(N4COCCC4=O)cc3)c2Cl)C(=O)N1 (centres unmarked)	> 90%

Using the record for CN1CCCN(Cc2ccc(-c3cccc(C4CCC(=O)NC4=O)c3Cl)cn2)C1=O (centres unmarked) , report its Dmax. 60 to 90%

Can you share its Dmax? I mean this molecule: O=C1CCC(c2cccc(-c3ccc(N4C(=O)OCC45CC5)cc3)c2Cl)C(=O)N1 (centres unmarked) > 90%

Find the recorded Dmax belonging to Cn1cnc(Cc2ccc(-c3cccc(C4CCC(=O)NC4=O)c3Cl)cc2)c1 (centres unmarked) and report it. > 90%

Entry under review: O=C1CCC(c2cccc(-c3ccc(CN4C(=O)CCC45CCC5)cc3)c2Cl)C(=O)N1 (centres unmarked) . Reported Dmax? > 90%

Suppose we examine the molecule O=C1CCC(c2cccc(-c3ccc(N4C(=O)C[C@@H]5CCC[C@@H]54)cc3)c2Cl)C(=O)N1 (some centres unmarked) ; what Dmax value has been reported? 60 to 90%

Given the entry O=C1CCC(c2cccc(-c3ccc(N4CCCOC4=O)nc3)c2Cl)C(=O)N1 (centres unmarked) , report its measured Dmax. 60 to 90%

====

Quick list: DC50 per entry.
Assay system: VAV1 (Homo sapiens, UniProt P15498+Q96SW2)
Construct: A heterozygous VAV1 C-terminal HiBiT knock-in pool was generated at Monte Rosa Therapeutics from a clonal Jurkat cell; endogenous in cells; host or cells: Jurkat clone stably expressing LgBiT, homozygous GSPT1-G575N; heterozygous VAV1-HiBiT knock-in pool
Experimental protocol: VAV1 degradation activity, VAV1-HiBiT knock-in Jurkat luminescence assay (Example A, Table 1)
Type: cell-based
Recorded conditions: VAV1-HiBiT knock-in Jurkat cells, luminescence read at 6 and 24 hours; read-out: VAV1 DC50 (nM), class

Using the record for C#Cc1ccc(C2CCC(=O)NC2=O)c(Cl)c1-c1ccc(OCc2ccn(C)n2)cc1 (centres unmarked) [Compound 172] , report its DC50. > 1000 nM

State the recorded DC50 for this entry: Cc1cc(C)n(Cc2ccc(-c3cccc(C4CCC(=O)NC4=O)c3Cl)cc2)n1 (centres unmarked) [Compound 127] ≤ 100 nM

Entry O=C1CCC(c2cccc(-c3ccc(Cn4ccnc4)cc3)c2Cl)C(=O)N1 (centres unmarked) [Compound 140] has what DC50? ≤ 100 nM

I have this compound here, O=C1CCC(c2cccc(-c3ccc(OCc4ccncc4)cc3)c2Cl)C(=O)N1 (centres unmarked) [Compound 124] , and I need its recorded DC50. ≤ 100 nM

# query: DC50 of entry O=C1CCC(c2cccc(-c3ccc(Cc4nccc(C(F)F)n4)cc3)c2Cl)C(=O)N1 (centres unmarked) [Compound 348] ≤ 100 nM

====

Assay system: VAV1 (Homo sapiens, UniProt P15498+Q96SW2)
Construct: A heterozygous VAV1 C-terminal HiBiT knock-in pool was generated at Monte Rosa Therapeutics from a clonal Jurkat cell; endogenous in cells; host or cells: Jurkat clone stably expressing LgBiT, homozygous GSPT1-G575N; heterozygous VAV1-HiBiT knock-in pool
Experimental protocol: VAV1 degradation activity, VAV1-HiBiT knock-in Jurkat luminescence assay (Example A, Table 1)
Format: cell-based
Recorded conditions: VAV1-HiBiT knock-in Jurkat cells, luminescence read at 6 and 24 hours; read-out: VAV1 DC50 (nM), class
Method: Cells were plated at 10,000 cells per well using Multiflo (BioTek) or Multi Drop Combi (Thermo Fisher) in 384-well white solid bottom plates (Corning, 3570BC) in 25 ul volume in RPMI 1640 media (Thermo Fischer, 22400105) containing 10% FBS (Corning, 35-075-CV), 1% Penicillin/Streptomycin (ThermoFisher Scientific, 15140-122), and 1% Endurazine (Nano-Glo Endurazine Live Cell Substrate (Promega, N2571)). Cells were incubated for ˜16 hours at 37° C., 5% CO2. […]
Quantity name: DC50

Worked set:
Molecule	Assay system	DC50
O=C1CCC(c2cccc(-c3ccc(Cc4cccnn4)cc3)c2Cl)C(=O)N1 (centres unmarked) [Compound 453]	VAV1 (Homo sapiens, UniProt P15498+Q96SW2)	≤ 100 nM
CN1CCCN(c2ccc(-c3cccc(C4CCC(=O)NC4=O)c3Cl)cc2F)C1=O (centres unmarked) [Compound 436]	VAV1 (Homo sapiens, UniProt P15498+Q96SW2)	≤ 100 nM
C[C@@H]1COC(=O)N1c1ccc(-c2cccc(C3CCC(=O)NC3=O)c2Cl)cc1 (some centres unmarked) [Compound 217]	VAV1 (Homo sapiens, UniProt P15498+Q96SW2)	≤ 100 nM
Cc1cccc(=O)n1Cc1ccc(-c2cccc(C3CCC(=O)NC3=O)c2Cl)cc1 (centres unmarked) [Compound 184]	VAV1 (Homo sapiens, UniProt P15498+Q96SW2)	≤ 100 nM
COc1ccc(-c2cccc(C3CCC(=O)NC3=O)c2Cl)cc1C#N (centres unmarked) [Compound 139]	VAV1 (Homo sapiens, UniProt P15498+Q96SW2)	> 1000 nM

Looking for the measured DC50 of O=C1CCC(c2cccc(-c3ccc4[nH]ccc4c3)c2Cl)C(=O)N1 (centres unmarked) [Compound 482] , can you help? ≤ 100 nM

Endpoint output: DC50 of O=C1CCC(c2cccc(-c3ccc(N4C(=O)CC45CCC5)cc3)c2Cl)C(=O)N1 (centres unmarked) [Compound 405] . Value? 100 to 1000 nM

Data request, read-out DC50, for O=C1CCC(c2cccc(-c3ccc(N4CCOCC4=O)cc3)c2Cl)C(=O)N1 (centres unmarked) [Compound 336] ≤ 100 nM

====

Documented DC50 across a set of molecules
Assay system: VAV1 (Homo sapiens, UniProt P15498+Q96SW2)
Construct: A heterozygous VAV1 C-terminal HiBiT knock-in pool was generated at Monte Rosa Therapeutics from a clonal Jurkat cell; endogenous in cells; host or cells: Jurkat clone stably expressing LgBiT, homozygous GSPT1-G575N; heterozygous VAV1-HiBiT knock-in pool
Experimental protocol: VAV1 degradation activity, VAV1-HiBiT knock-in Jurkat luminescence assay (Example A, Table 1)
Format: cell-based
Recorded conditions: VAV1-HiBiT knock-in Jurkat cells, luminescence read at 6 and 24 hours; read-out: VAV1 DC50 (nM), class

Sample answers from the record:
Molecule	DC50
Nc1ccnn1Cc1ccc(-c2cccc(C3CCC(=O)NC3=O)c2Cl)cc1 (stereo not drawn) [Compound 118]	≤ 100 nM
Cn1ncc2c1CCC(=O)N2c1ccc(-c2cccc(C3CCC(=O)NC3=O)c2Cl)cc1 (stereo not drawn) [Compound 316]	≤ 100 nM
CC1CCC(=O)N1Cc1ccc(-c2cccc(C3CCC(=O)NC3=O)c2Cl)cc1 (stereo not drawn) [Compound 297]	≤ 100 nM
CC(C)(c1ccc(-c2cccc(C3CCC(=O)NC3=O)c2Cl)cc1)n1ccccc1=O (stereo not drawn) [Compound 231]	≤ 100 nM

Query molecule follows.
Need DC50 of CC(C)(c1ccc(-c2cccc(C3CCC(=O)NC3=O)c2Cl)cc1)N1CCCCC1=O (stereo not drawn) [Compound 197] , thanks. ≤ 100 nM

====

Assay system: VAV1 (Homo sapiens, UniProt P15498+Q96SW2)
Construct: A heterozygous VAV1 C-terminal HiBiT knock-in pool was generated at Monte Rosa Therapeutics from a clonal Jurkat cell; endogenous in cells; host or cells: Jurkat clone stably expressing LgBiT, homozygous GSPT1-G575N; heterozygous VAV1-HiBiT knock-in pool
Experimental protocol: VAV1 degradation activity, VAV1-HiBiT knock-in Jurkat luminescence assay (Example A, Table 1)
Type: cell-based
Recorded conditions: VAV1-HiBiT knock-in Jurkat cells, luminescence read at 6 and 24 hours after compound addition; read-out: VAV1 DC50
Label 1 when DC50 is strictly below 8 nM; otherwise label 0.

Compound	Assay system	Group label
Cn1ccc(CN2CCc3cc(-c4cccc(C5CCC(=O)NC5=O)c4Cl)ccc32)n1 (centres unmarked) [Compound 489]	VAV1 (Homo sapiens, UniProt P15498+Q96SW2)	1
Cn1cnc(CN2C(=O)Cc3cc(-c4cccc(C5CCC(=O)NC5=O)c4Cl)ccc32)c1 (centres unmarked) [Compound 504]	VAV1 (Homo sapiens, UniProt P15498+Q96SW2)	1
Cn1ccc(Cc2noc3cc(-c4cccc(C5CCC(=O)NC5=O)c4Cl)ccc23)n1 (centres unmarked) [Compound 510]	VAV1 (Homo sapiens, UniProt P15498+Q96SW2)	0

# check: DC50 < 8 nM for CN1Cc2cc(-c3cccc(C4CCC(=O)NC4=O)c3Cl)ccc2N(Cc2ccn(C)n2)C1=O (centres unmarked) [Compound 503] 1

Field: below-cutoff. Rule: recorded DC50 strictly less than 8 nM. Subject: O=C1CCC(c2cccc(-c3ccc4cc[nH]c4c3)c2Cl)C(=O)N1 (centres unmarked) [Compound 483] 0

Strictly below 8 nM: is that where DC50 of O=C1CCC(c2cccc(-c3ccc4c(c3)CC(=O)N4)c2Cl)C(=O)N1 (centres unmarked) [Compound 493] sits? 0

is_below(DC50, 8 nM) for Cn1cccc(N2CCc3cc(-c4cccc(C5CCC(=O)NC5=O)c4Cl)ccc32)c1=O (centres unmarked) [Compound 509] ? 1

Answer whether the compound Cn1ccc(Cn2ncc3cc(-c4cccc(C5CCC(=O)NC5=O)c4Cl)ccc32)n1 (centres unmarked) [Compound 498] has DC50 strictly less than 8 nM 0

Strictly below 8 nM in DC50? O=C1CCC(c2cccc(-c3cnc4c(c3)OCCN4)c2Cl)C(=O)N1 (centres unmarked) [Compound 494] 0

DC50 strictly < 8 nM for this compound? O=C1CCC(c2cccc(-c3ccc4c(c3)CC(=O)N4Cc3cocn3)c2Cl)C(=O)N1 (centres unmarked) [Compound 505] 0

Does the reported DC50 of the following compound sit strictly below 8 nM? CN1CCc2cc(-c3cccc(C4CCC(=O)NC4=O)c3Cl)ccc21 (centres unmarked) [Compound 488] 0
